Target: GSK-3β (Homo sapiens, UniProt P49841)
Sequence (P49841 whole entry): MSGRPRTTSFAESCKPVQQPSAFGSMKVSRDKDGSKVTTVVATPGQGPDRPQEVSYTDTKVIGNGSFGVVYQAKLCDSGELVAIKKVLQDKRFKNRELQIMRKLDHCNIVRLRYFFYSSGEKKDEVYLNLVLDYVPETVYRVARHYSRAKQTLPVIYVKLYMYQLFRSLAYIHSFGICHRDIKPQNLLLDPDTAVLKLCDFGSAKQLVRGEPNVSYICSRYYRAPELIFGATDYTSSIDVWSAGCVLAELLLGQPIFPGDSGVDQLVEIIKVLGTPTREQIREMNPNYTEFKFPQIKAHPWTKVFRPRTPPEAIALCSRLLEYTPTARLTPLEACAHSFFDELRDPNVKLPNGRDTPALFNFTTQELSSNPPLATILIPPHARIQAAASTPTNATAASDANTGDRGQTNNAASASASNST
Assay: Kinase luminescent assay (ADP-Glo), GSK-3β inhibition
Format: biochemical
Conditions: 25 μM ATP, 1 hour, room temperature; mean of quadruplicate of two experiments; read-out: IC50 against GSK-3β
Some molecules, each annotated with its measured IC50.
Enter your answer as a number in µM; do not include the unit.

{"molecule": "COc1ccc(-c2cc(=O)c3c(OC)c([C@@H]4O[C@H](C(=O)Nc5ccccc5)[C@@H](O)[C@H](O)[C@H]4O)c(OC)cc3o2)cc1OC", "IC50 [µM]": 19.7}
{"molecule": "COc1ccc(-c2cc(=O)c3c(OC)c([C@@H]4O[C@H](C(=O)NC56CC7CC(CC(C7)C5)C6)[C@@H](O)[C@H](O)[C@H]4O)c(OC)cc3o2)cc1OC", "IC50 [µM]": 33.5}
{"molecule": "COc1ccc(-c2cc(=O)c3c(OC)c([C@@H]4O[C@H](C(=O)NC5CCC5)[C@@H](O)[C@H](O)[C@H]4O)c(OC)cc3o2)cc1OC", "IC50 [µM]": 61.9}
{"molecule": "COc1ccc(-c2cc(=O)c3c(OC)c([C@@H]4O[C@H](CO)[C@@H](O)[C@H](O)[C@H]4O)c(OC)cc3o2)cc1OC", "IC50 [µM]": 239}
{"molecule": "COc1ccc(-c2cc(=O)c3c(OC)c([C@@H]4O[C@H](C(=O)NC5CC5)[C@@H](O)[C@H](O)[C@H]4O)c(OC)cc3o2)cc1OC", "IC50 [µM]": 25.8}
{"molecule": "CCCCNC(=O)[C@H]1O[C@@H](c2c(OC)cc3oc(-c4ccc(OC)c(OC)c4)cc(=O)c3c2OC)[C@H](O)[C@@H](O)[C@@H]1O", "IC50 [µM]": 33.3}
{"molecule": "CCCCCCNC(=O)[C@H]1O[C@@H](c2c(OC)cc3oc(-c4ccc(OC)c(OC)c4)cc(=O)c3c2OC)[C@H](O)[C@@H](O)[C@@H]1O", "IC50 [µM]": 9.4}
{"molecule": "O=c1cc(-c2ccc(O)c(O)c2)oc2c([C@@H]3O[C@H](CO)[C@@H](O)[C@H](O)[C@H]3O)c(O)cc(O)c12 [Compound 3, orientin, reference compound]", "IC50 [µM]": 5150}

In: Entry `COC(=O)[C@H]1O[C@@H](c2c(OC)cc3oc(-c4ccc(OC)c(OC)c4)cc(=O)c3c2OC)[C@H](O)[C@@H](O)[C@@H]1O` , system GSK-3β (Homo sapiens, UniProt P49841): what IC50 was measured?
Out: 135

In: Entry `O=c1cc(-c2ccc(O)c(O)c2)oc2cc(O)c([C@@H]3O[C@H](CO)[C@@H](O)[C@H](O)[C@H]3O)c(O)c12` , system GSK-3β (Homo sapiens, UniProt P49841): what IC50 was measured?
Out: 185

In: Entry `COc1ccc(-c2cc(=O)c3c(OC)c([C@@H]4O[C@H](C(=O)NC(C)C)[C@@H](O)[C@H](O)[C@H]4O)c(OC)cc3o2)cc1OC` , system GSK-3β (Homo sapiens, UniProt P49841): what IC50 was measured?
Out: 5.4

In: Entry `COc1ccc(-c2cc(=O)c3c(OC)c([C@@H]4O[C@H](C(=O)NC5CCCC5)[C@@H](O)[C@H](O)[C@H]4O)c(OC)cc3o2)cc1OC` , system GSK-3β (Homo sapiens, UniProt P49841): what IC50 was measured?
Out: 13.1

In: Entry `CCCNC(=O)[C@H]1O[C@@H](c2c(OC)cc3oc(-c4ccc(OC)c(OC)c4)cc(=O)c3c2OC)[C@H](O)[C@@H](O)[C@@H]1O` , system GSK-3β (Homo sapiens, UniProt P49841): what IC50 was measured?
Out: 29.2

In: Entry `COc1ccc(-c2cc(=O)c3c(OC)c([C@@H]4O[C@H](C(=O)NCC(C)C)[C@@H](O)[C@H](O)[C@H]4O)c(OC)cc3o2)cc1OC` , system GSK-3β (Homo sapiens, UniProt P49841): what IC50 was measured?
Out: 31.1

In: Entry `COc1ccc(-c2cc(=O)c3c(OC)c([C@@H]4O[C@H](C(=O)NCC5CCCCC5)[C@@H](O)[C@H](O)[C@H]4O)c(OC)cc3o2)cc1OC` , system GSK-3β (Homo sapiens, UniProt P49841): what IC50 was measured?
Out: 26

In: Entry `COc1ccc(-c2cc(=O)c3c(OC)c([C@@H]4O[C@H](C(=O)O)[C@@H](O)[C@H](O)[C@H]4O)c(OC)cc3o2)cc1OC` , system GSK-3β (Homo sapiens, UniProt P49841): what IC50 was measured?
Out: 237

In: Entry `COc1ccc(-c2cc(=O)c3c(OC)c([C@@H]4O[C@H](C(=O)NCCF)[C@@H](O)[C@H](O)[C@H]4O)c(OC)cc3o2)cc1OC` , system GSK-3β (Homo sapiens, UniProt P49841): what IC50 was measured?
Out: 34.8

In: Entry `COc1ccc(-c2cc(=O)c3c(OC)c([C@@H]4O[C@H](C(=O)NC5CCCCC5)[C@@H](O)[C@H](O)[C@H]4O)c(OC)cc3o2)cc1OC` , system GSK-3β (Homo sapiens, UniProt P49841): what IC50 was measured?
Out: 9

In: Entry `COc1ccc(-c2cc(=O)c3c(OC)c([C@@H]4O[C@H](C(=O)Nc5nccs5)[C@@H](O)[C@H](O)[C@H]4O)c(OC)cc3o2)cc1OC` , system GSK-3β (Homo sapiens, UniProt P49841): what IC50 was measured?
Out: 35.1

In: Entry O=c1cc(-c2ccc(O)c(O)c2)oc2cc(O)cc(O)c12 [Compound 4, luteolin, reference compound] , system GSK-3β (Homo sapiens, UniProt P49841): what IC50 was measured?
Out: 3.1

In: Entry `COc1ccc(-c2cc(=O)c3c(OC)c([C@@H]4O[C@H](C(=O)NCc5ccccc5)[C@@H](O)[C@H](O)[C@H]4O)c(OC)cc3o2)cc1OC` , system GSK-3β (Homo sapiens, UniProt P49841): what IC50 was measured?
Out: 15.8

In: Entry `CCCCCNC(=O)[C@H]1O[C@@H](c2c(OC)cc3oc(-c4ccc(OC)c(OC)c4)cc(=O)c3c2OC)[C@H](O)[C@@H](O)[C@@H]1O` , system GSK-3β (Homo sapiens, UniProt P49841): what IC50 was measured?
Out: 28
